Some binders, each annotated with its measured RLU.
- assay.target: T1, apical domain of cynomolgus CD71 (cynomolgus, UniProt A0A2K5X958 189-383)
- T1 construct: domain: apical domain; also called Cyno apical domain
- T1 sequence (A0A2K5X958 entry or part of it): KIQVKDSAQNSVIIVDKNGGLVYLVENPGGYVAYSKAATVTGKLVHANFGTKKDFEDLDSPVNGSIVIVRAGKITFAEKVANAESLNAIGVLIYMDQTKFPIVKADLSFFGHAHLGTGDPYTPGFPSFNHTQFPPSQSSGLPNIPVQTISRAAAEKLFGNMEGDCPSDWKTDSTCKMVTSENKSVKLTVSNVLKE
- experiment: primary ELISA; note: test concentration or dose not given here
Give a bare numeral; the unit RLU is implied.

Past entries and their recorded results:
CD71-binding FN3 domain of SEQ ID NO: 212 (designed binder) MSLPAPKNLVVSRVTEDSARLSWTAPDAAFDSFEIGYFENLYLGEAIVLTVPGSERYYDLTGLKPGTEYWVQIGGVKGGNWSAPLSAIFTT :: 5.13e+06
CD71-binding FN3 domain of SEQ ID NO: 169 (designed binder) MSLPAPKNLVVSRVTEDSARLSWTAPDAAFDSFEIGYFENLYLGEAIVLTVPGSERSYDLTGLKPGTEYWVQIGGVKGGNWSAPLSATFTT :: 4.35e+06

# RLU (binder: CD71-binding FN3 domain of SEQ ID NO: 149 (designed binder) MSLPAPKNLVVSRVTEDSARLSWTAPDAAFDSFDIGYFELRYYGEAIVLTVPGSERSYDLTGLKPGTEYWVSIGGVKGGTYSAPLSAIFTT ) is 5e+06

Summary for this binder, CD71-binding FN3 domain of SEQ ID NO: 139 (designed binder) MSLPAPKNLVVSRVTEDSARLSWTAPDAAFDSFEIGYFENLYLGEAIVLTVPGSERSYDLTGLKPGTEYWVQIGGVKGGAYSTPLSAIFTT : RLU is 4.49e+06

This collection of values is drawn from patent US20260151494A1.
